The values you see were collected from PubChem BioAssay (NCI).

# System: HS 578T breast
# protocolSummary: NCI tumour cell line growth inhibition, 48 h
TGI reference

Example compounds with recorded TGI:
compound	TGI
CC12OC(=O)[C@@]3(O)CCC4C(C[C@H]5O[C@]56CC=CC(=O)[C@]46C)C45OC[C@H]6C(=O)O[C@@H]1C[C@@]6(C)[C@H](C4=O)C23O5 (stereo partly specified)	68.9 µM
COc1cc2c(cc1OC)C1C(O)C(OC)C(Br)C3(Br)CCN(C2)C13 (stereo unspecified)	> 100 µM
OCCNc1ncnc2nc[nH]c12	> 100 µM
O=C(Nc1ccn(C2CC(O)C(CO)O2)c(=O)n1)c1ccccc1 (stereo unspecified)	> 100 µM
COc1cc(/C=C/C(=O)c2cc(OC)c(OC)c(OC)c2)ccc1Oc1nc2c(c(=O)n(C)c(=O)n2C)n1C	> 100 µM

Consider the record given below.
Find the recorded TGI belonging to `COC(=O)C1=C(C)NC(C)=C(C(=O)OC)C1c1ccc(NO)cc1` and report it.
47.3 µM
